This collection of values is drawn from patent US10543189B2.

Assay: Phase I dose escalation trial: pharmacokinetic profile
Type: in vivo, human
Settings: human, plasma, oral, 600 mg, Total Daily Dose 600 (mg), bid q4h, patient plasma; read-out: C24h
Result Type: concentration at 24 h
Put your answer as a value accompanied by its unit after it.

Looking up CC(=O)c1cc2c(o1)C(=O)c1ccccc1C2=O [Compound 1, 2-acetylnaphtho[2,3-b]furan-4,9-dione] , I see its concentration at 24 h listed as 420 nM

====

Test: Phase I dose escalation trial: pharmacokinetic profile
Type: in vivo, human
Settings: human, plasma, oral, 1500 mg, Total Daily Dose 1500 (mg), tid q4h, patient plasma; read-out: T1/2,t (converted)
Result Type: half-life (h)
State the answer as a number, implicitly in h.

// recorded half-life for CC(=O)c1cc2c(o1)C(=O)c1ccccc1C2=O [Compound 1, 2-acetylnaphtho[2,3-b]furan-4,9-dione] : 8.2

====

Test: Phase I dose escalation trial: pharmacokinetic profile
Format: in vivo, human
Details: human, plasma, oral, 80 mg, Total Daily Dose 80 (mg), qd, patient plasma; read-out: T1/2,t (converted)
Result Type: half-life (h)
Record the value in h, omitting the unit from your answer.

Entry under test: CC(=O)c1cc2c(o1)C(=O)c1ccccc1C2=O [Compound 1, 2-acetylnaphtho[2,3-b]furan-4,9-dione] . Its half-life was 5.2

====

Assay: Phase I dose escalation trial: pharmacokinetic profile
Assay type: in vivo, human
Conditions: human, plasma, oral, 80 mg, Total Daily Dose 80 (mg), bid q4h, patient plasma; read-out: AUC0-24
Result Type: AUC(0-t) (µM·h)
Respond numerically; units are µM·h and should not be typed.

The measured AUC(0-t) associated with CC(=O)c1cc2c(o1)C(=O)c1ccccc1C2=O [Compound 1, 2-acetylnaphtho[2,3-b]furan-4,9-dione] reads 7.95

====

Test: Phase 1 extension study of higher strength capsule (DP2A): pharmacokinetics
Assay type: in vivo
Conditions: human, plasma, oral, 500 mg, Patient 0061, single 500 mg dose - fed, read-out: AUC0-24
Result Type: AUC(0-t)

Quick note, AUC(0-t) for CC(=O)c1cc2c(o1)C(=O)c1ccccc1C2=O [Compound 1, 2-acetylnaphtho[2,3-b]furan-4,9-dione] landed at 10.6 µM·h

====

Experiment: Phase I dose escalation trial: pharmacokinetic profile
Format: in vivo, human
Conditions: human, plasma, oral, 1500 mg, Total Daily Dose 1500 (mg), tid q4h, patient plasma; read-out: C24h
Result Type: concentration at 24 h

Documented concentration at 24 h of CC(=O)c1cc2c(o1)C(=O)c1ccccc1C2=O [Compound 1, 2-acetylnaphtho[2,3-b]furan-4,9-dione] : 940 nM

====

Assay: Phase I dose escalation trial: pharmacokinetic profile
Assay type: in vivo, human
Conditions: human, plasma, oral, 1000 mg, Total Daily Dose 1000 (mg), bid q6h, patient plasma; read-out: T1/2,t (converted)
Result Type: half-life (h)
Express the result in h but write the number alone.

half-life in this record for CC(=O)c1cc2c(o1)C(=O)c1ccccc1C2=O [Compound 1, 2-acetylnaphtho[2,3-b]furan-4,9-dione] : 12.7

====

Assay: Phase I dose escalation trial: pharmacokinetic profile
Type: in vivo, human
Details: human, plasma, oral, 800 mg, Total Daily Dose 800 (mg), bid q4h, patient plasma
Result Type: AUC (µM·h)
Please reply with the bare figure in µM·h and do not write the unit itself.

Measured AUC, CC(=O)c1cc2c(o1)C(=O)c1ccccc1C2=O [Compound 1, 2-acetylnaphtho[2,3-b]furan-4,9-dione] : 27

====

Experiment: Phase I dose escalation trial: pharmacokinetic profile
Type: in vivo, human
Conditions: human, plasma, oral, 160 mg, Total Daily Dose 160 (mg), bid q4h, patient plasma
Result Type: Tmax (h)
Answer in h, number only, no unit symbol.

Briefly, Tmax measured for CC(=O)c1cc2c(o1)C(=O)c1ccccc1C2=O [Compound 1, 2-acetylnaphtho[2,3-b]furan-4,9-dione] : 3.9

====

Experiment: Phase I dose escalation trial: pharmacokinetic profile
Format: in vivo, human
Conditions: human, plasma, oral, 1500 mg, Total Daily Dose 1500 (mg), tid q4h, patient plasma
Result Type: AUC (µM·h)
Numeric only. Scale: µM·h

Recorded AUC (compound CC(=O)c1cc2c(o1)C(=O)c1ccccc1C2=O [Compound 1, 2-acetylnaphtho[2,3-b]furan-4,9-dione] ): 59.9

====

Assay: Phase I dose escalation trial: pharmacokinetic profile
Assay type: in vivo, human
Conditions: human, plasma, oral, 1000 mg, Total Daily Dose 1000 (mg), bid q4h, patient plasma
Result Type: Tmax

Record CC(=O)c1cc2c(o1)C(=O)c1ccccc1C2=O [Compound 1, 2-acetylnaphtho[2,3-b]furan-4,9-dione] , field Tmax: 6.6 h

====

Assay: Pharmacokinetics when taken fasting, with milk or with food
Assay type: in vivo, human
Details: human, in vivo, oral, Patient 20, With Food
Result Type: Tmax (h)
API: value field is a number in h; no unit string.

The recorded Tmax for CC(=O)c1cc2c(o1)C(=O)c1ccccc1C2=O [Compound 1, 2-acetylnaphtho[2,3-b]furan-4,9-dione] is 8

====

Test: Phase 1 extension study of higher strength capsule (DP2A): pharmacokinetics
Assay type: in vivo
Conditions: human, plasma, oral, 500 mg, Patient 0070, single 500 mg dose - fed, read-out: AUC0-24
Result Type: AUC(0-t) (µM·h)
The answer is to be given in µM·h; state only the numeric part.

Lab note: measured AUC(0-t) of CC(=O)c1cc2c(o1)C(=O)c1ccccc1C2=O [Compound 1, 2-acetylnaphtho[2,3-b]furan-4,9-dione] was 20.1

====

Test: Phase I dose escalation trial: pharmacokinetic profile
Format: in vivo, human
Settings: human, plasma, oral, 1000 mg, Total Daily Dose 1000 (mg), bid q4h, patient plasma; read-out: T1/2,t (converted)
Result Type: half-life (h)
Report only the number, with the unit h understood.

Record CC(=O)c1cc2c(o1)C(=O)c1ccccc1C2=O [Compound 1, 2-acetylnaphtho[2,3-b]furan-4,9-dione] . Reported half-life: 6.6

====

Experiment: Phase I dose escalation trial: pharmacokinetic profile
Assay type: in vivo, human
Details: human, plasma, oral, 40 mg, Total Daily Dose 40 (mg), qd, patient plasma; read-out: AUC0-24
Result Type: AUC(0-t) (µM·h)
Note: unit µM·h is implicit; provide only the numeric part.

Documented AUC(0-t) of CC(=O)c1cc2c(o1)C(=O)c1ccccc1C2=O [Compound 1, 2-acetylnaphtho[2,3-b]furan-4,9-dione] : 3.44

====

Assay: Phase I dose escalation trial: pharmacokinetic profile
Format: in vivo, human
Conditions: human, plasma, oral, 400 mg, Total Daily Dose 400 (mg), bid q4h, patient plasma
Result Type: AUC (µM·h)
Just the number please, in µM·h, no unit attached.

CC(=O)c1cc2c(o1)C(=O)c1ccccc1C2=O [Compound 1, 2-acetylnaphtho[2,3-b]furan-4,9-dione] yielded AUC of 48.2

====

Assay: Pharmacokinetics when taken fasting, with milk or with food
Format: in vivo, human
Settings: human, in vivo, oral, Patient 21, With Milk
Result Type: Tmax
Put down the number, then write its unit next to it.

Record CC(=O)c1cc2c(o1)C(=O)c1ccccc1C2=O [Compound 1, 2-acetylnaphtho[2,3-b]furan-4,9-dione] . Reported Tmax: 6 h

====

Test: Phase I dose escalation trial: pharmacokinetic profile
Assay type: in vivo, human
Details: human, plasma, oral, 2000 mg, Total Daily Dose 2000 (mg), bid q4h, patient plasma; read-out: AUC0-24
Result Type: AUC(0-t) (µM·h)
Report only the number, with the unit µM·h understood.

Noted for CC(=O)c1cc2c(o1)C(=O)c1ccccc1C2=O [Compound 1, 2-acetylnaphtho[2,3-b]furan-4,9-dione] : its AUC(0-t) reads 25.9

====

Assay: Phase I dose escalation trial: pharmacokinetic profile
Type: in vivo, human
Details: human, plasma, oral, 40 mg, Total Daily Dose 40 (mg), qd, patient plasma; read-out: C24h
Result Type: concentration at 24 h (nM)
Give your result in nM as a bare value.

Short answer for CC(=O)c1cc2c(o1)C(=O)c1ccccc1C2=O [Compound 1, 2-acetylnaphtho[2,3-b]furan-4,9-dione] : concentration at 24 h was 30

====

Assay: Phase I dose escalation trial: pharmacokinetic profile
Assay type: in vivo, human
Conditions: human, plasma, oral, 320 mg, Total Daily Dose 320 (mg), bid q4h, patient plasma; read-out: AUC0-24
Result Type: AUC(0-t) (µM·h)
Field format: number, assumed µM·h, no unit text.

Form field AUC(0-t), entry CC(=O)c1cc2c(o1)C(=O)c1ccccc1C2=O [Compound 1, 2-acetylnaphtho[2,3-b]furan-4,9-dione] : 33.1

====

Test: Phase I dose escalation trial: pharmacokinetic profile
Format: in vivo, human
Settings: human, plasma, oral, 600 mg, Total Daily Dose 600 (mg), bid q4h, patient plasma
Result Type: AUC (µM·h)
Give the value, in units of µM·h, as a plain number.

Lab note: CC(=O)c1cc2c(o1)C(=O)c1ccccc1C2=O [Compound 1, 2-acetylnaphtho[2,3-b]furan-4,9-dione] gave AUC of 37.1
